Data provenance is the supplement of paper PMC10567573.

B1: RAB11A (parent)
chain: AVPTDEARAFAEKNGLSFIETSAL

Variants of: B1
Test: protein stability index of a GFP-peptide fusion (GPS, HEK-293T) (PSI 1-6); higher = more stable;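 also: lentivirally expressed fusions sorted by FACS into six bins by GFP to DsRed ratio, PSI derived from sequencing read proportions per bin multiplied by bin number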
Details: c terminus: a fixed tail appended
Where protein stability index equals or exceeds 3, the correct label is yes; where it does not, the label is no.

Given the entry `E20D` , answer whether its protein stability index meets or surpasses 3.
no

Given the entry `R8V` , answer whether its protein stability index meets or surpasses 3.
no

Given the entry `A9M` , answer whether its protein stability index meets or surpasses 3.
no

Given the entry `I19H` , answer whether its protein stability index meets or surpasses 3.
no

Given the entry `I19W` , answer whether its protein stability index meets or surpasses 3.
yes

Given the entry `A1G` , answer whether its protein stability index meets or surpasses 3.
no

Given the entry `S22M` , answer whether its protein stability index meets or surpasses 3.
no

Given the entry `R8G` , answer whether its protein stability index meets or surpasses 3.
no

Given the entry `L24P` , answer whether its protein stability index meets or surpasses 3.
yes

Given the entry `P3Y` , answer whether its protein stability index meets or surpasses 3.
no

Given the entry `A11W` , answer whether its protein stability index meets or surpasses 3.
no

Given the entry `S17L` , answer whether its protein stability index meets or surpasses 3.
no

Given the entry `A11S` , answer whether its protein stability index meets or surpasses 3.
no

Given the entry `N14D` , answer whether its protein stability index meets or surpasses 3.
yes

Given the entry `T4G` , answer whether its protein stability index meets or surpasses 3.
no

Given the entry `L24E` , answer whether its protein stability index meets or surpasses 3.
yes

Given the entry `R8N` , answer whether its protein stability index meets or surpasses 3.
no

Given the entry `L24F` , answer whether its protein stability index meets or surpasses 3.
no

Given the entry `L16I` , answer whether its protein stability index meets or surpasses 3.
yes

Given the entry `L16P` , answer whether its protein stability index meets or surpasses 3.
yes

Given the entry `E12T` , answer whether its protein stability index meets or surpasses 3.
no

Given the entry `I19G` , answer whether its protein stability index meets or surpasses 3.
yes

Given the entry `A9S` , answer whether its protein stability index meets or surpasses 3.
no

Given the entry `S17E` , answer whether its protein stability index meets or surpasses 3.
yes

Given the entry `L16V` , answer whether its protein stability index meets or surpasses 3.
yes

Given the entry `F18Q` , answer whether its protein stability index meets or surpasses 3.
yes

Given the entry `A7S` , answer whether its protein stability index meets or surpasses 3.
no

Given the entry `K13H` , answer whether its protein stability index meets or surpasses 3.
no

Given the entry `A9R` , answer whether its protein stability index meets or surpasses 3.
no

Given the entry `F18V` , answer whether its protein stability index meets or surpasses 3.
yes

Given the entry `A1T` , answer whether its protein stability index meets or surpasses 3.
no

Given the entry `G15M` , answer whether its protein stability index meets or surpasses 3.
no

Given the entry `F10A` , answer whether its protein stability index meets or surpasses 3.
no

Given the entry `N14K` , answer whether its protein stability index meets or surpasses 3.
no

Given the entry `E6W` , answer whether its protein stability index meets or surpasses 3.
no

Given the entry `E20T` , answer whether its protein stability index meets or surpasses 3.
no

Given the entry `T4V` , answer whether its protein stability index meets or surpasses 3.
no

Given the entry `E12S` , answer whether its protein stability index meets or surpasses 3.
no

Given the entry `E20K` , answer whether its protein stability index meets or surpasses 3.
no

Given the entry `A7T` , answer whether its protein stability index meets or surpasses 3.
no

Given the entry `E20A` , answer whether its protein stability index meets or surpasses 3.
no

Given the entry `A11D` , answer whether its protein stability index meets or surpasses 3.
yes

Given the entry `A1Q` , answer whether its protein stability index meets or surpasses 3.
no

Given the entry `P3M` , answer whether its protein stability index meets or surpasses 3.
no

Given the entry `F18K` , answer whether its protein stability index meets or surpasses 3.
yes

Given the entry `L16Y` , answer whether its protein stability index meets or surpasses 3.
yes

Given the entry `G15T` , answer whether its protein stability index meets or surpasses 3.
no

Given the entry `A1N` , answer whether its protein stability index meets or surpasses 3.
no

Given the entry `E6K` , answer whether its protein stability index meets or surpasses 3.
no

Given the entry `V2D` , answer whether its protein stability index meets or surpasses 3.
no

Given the entry `A11R` , answer whether its protein stability index meets or surpasses 3.
no

Given the entry `E6Q` , answer whether its protein stability index meets or surpasses 3.
no

Given the entry `A7I` , answer whether its protein stability index meets or surpasses 3.
no

Given the entry `D5F` , answer whether its protein stability index meets or surpasses 3.
no

Given the entry `P3N` , answer whether its protein stability index meets or surpasses 3.
no

Given the entry `A9E` , answer whether its protein stability index meets or surpasses 3.
yes

Given the entry `F10Y` , answer whether its protein stability index meets or surpasses 3.
no

Given the entry `S22H` , answer whether its protein stability index meets or surpasses 3.
no

Given the entry `E6T` , answer whether its protein stability index meets or surpasses 3.
no

Given the entry `A11I` , answer whether its protein stability index meets or surpasses 3.
no

Given the entry `A9V` , answer whether its protein stability index meets or surpasses 3.
no

Given the entry `D5C` , answer whether its protein stability index meets or surpasses 3.
no

Given the entry `K13E` , answer whether its protein stability index meets or surpasses 3.
no

Given the entry `K13W` , answer whether its protein stability index meets or surpasses 3.
yes

Given the entry `F18G` , answer whether its protein stability index meets or surpasses 3.
yes

Given the entry `T21L` , answer whether its protein stability index meets or surpasses 3.
no

Given the entry `A23F` , answer whether its protein stability index meets or surpasses 3.
no

Given the entry `N14M` , answer whether its protein stability index meets or surpasses 3.
no

Given the entry `N14V` , answer whether its protein stability index meets or surpasses 3.
no

Given the entry `E20L` , answer whether its protein stability index meets or surpasses 3.
no

Given the entry `L24Q` , answer whether its protein stability index meets or surpasses 3.
yes

Given the entry `K13T` , answer whether its protein stability index meets or surpasses 3.
no

Given the entry `A11F` , answer whether its protein stability index meets or surpasses 3.
no

Given the entry `S22K` , answer whether its protein stability index meets or surpasses 3.
yes

Given the entry `A11M` , answer whether its protein stability index meets or surpasses 3.
no

Given the entry `K13C` , answer whether its protein stability index meets or surpasses 3.
no

Given the entry `A23N` , answer whether its protein stability index meets or surpasses 3.
no

Given the entry `A1P` , answer whether its protein stability index meets or surpasses 3.
no

Given the entry `E6G` , answer whether its protein stability index meets or surpasses 3.
no

Given the entry `T4Q` , answer whether its protein stability index meets or surpasses 3.
no

Given the entry `A11V` , answer whether its protein stability index meets or surpasses 3.
no

Given the entry `A9C` , answer whether its protein stability index meets or surpasses 3.
no

Given the entry `E12L` , answer whether its protein stability index meets or surpasses 3.
no

Given the entry `L16Q` , answer whether its protein stability index meets or surpasses 3.
yes

Given the entry `A23Y` , answer whether its protein stability index meets or surpasses 3.
no

Given the entry `K13A` , answer whether its protein stability index meets or surpasses 3.
no
